# target under test: Protein farnesyltransferase (Homo sapiens, UniProt P49354+P49356)
# experiment summary: Binding affinity to CaaX site of human recombinant FTase by non-competitive Michaelis-Menten analysis for enzyme-substrate-inhibitor complex
# Type: protein-complex assay
Ki overview
attribute measured: Ki (µM)

molecule: CCOC(=O)C(C/C=C(\C)CC/C=C(\C)CCC=C(C)C)(CCCc1ncc(CN[C@H](C(=O)N[C@@H](Cc2ccccc2)C(=O)N[C@@H](CCSC)C(=O)O)C(C)C)n1C)C(=O)O (some centres not stated)
display unit: µM
value reported: 5.6
//
molecule: CCOC(=O)C(C/C=C/c1ncc(CN[C@H](C(=O)N[C@@H](Cc2ccccc2)C(=O)N[C@@H](CCSC)C(=O)O)C(C)C)n1C)(C/C=C(\C)CC/C=C(\C)CCC=C(C)C)C(=O)O (some centres not stated)
display unit: µM
value reported: 15
